Listed next: entries and their corresponding MIC: concentration required to lower the MIC of novobiocin from >500 μg/mL to 1 μg/mL.
tested on: E. coli (ATCC 10798); experiment: Sensitization to novobiocin (concentration lowering the MIC of novobiocin), E. coli (ATCC 10798); assay type: cell-based, Escherichia coli; conditions: Table 3; E. coli (ATCC 10798)
# output: bare number, implied unit µg/mL

- COMPOUND: "C[C@H](CCCN(C)Cc1ccccc1)[C@H]1CC[C@H]2[C@@H]3[C@H](OCCCN)C[C@@H]4C[C@H](OCCCN)CC[C@]4(C)[C@H]3C[C@H](OCCCN)[C@]12C"
  OBSERVED_VALUE: 7

Problem: // lookup MIC: concentration required to lower the MIC of novobiocin from >500 μg/mL to 1 μg/mL | system=E. coli (ATCC 10798) | key= "C[C@H](CCCN(C)Cc1ccccc1)[C@H]1CC[C@H]2[C@@H]3[C@H](OCCCNC(=N)N)C[C@@H]4C[C@H](OCCCNC(=N)N)CC[C@]4(C)[C@H]3C[C@H](OCCCNC(=N)N)[C@]12C"
Result: 2

Problem: Please give the result for "C[C@H](CCCOCCC[C@@H](C)[C@H]1CC[C@H]2[C@@H]3[C@H](OCCCN)C[C@@H]4C[C@H](OCCCN)CC[C@]4(C)[C@H]3C[C@H](OCCCN)[C@]12C)[C@H]1CC[C@H]2[C@@H]3[C@H](OCCCN)C[C@@H]4C[C@H](OCCCN)CC[C@]4(C)[C@H]3C[C@H](OCCCN)[C@]12C" too.
Result: 2.5

Problem: Please give the result for "C[C@H](CCCN(C)Cc1ccccc1)[C@H]1CC[C@H]2[C@@H]3[C@H](OCCNC(=N)N)C[C@@H]4C[C@H](OCCNC(=N)N)CC[C@]4(C)[C@H]3C[C@H](OCCNC(=N)N)[C@]12C" too.
Result: 5

Problem: Please give the result for "C[C@H](CCCN(C)Cc1ccccc1)[C@H]1CC[C@H]2[C@@H]3[C@H](OCCN)C[C@@H]4C[C@H](OCCN)CC[C@]4(C)[C@H]3C[C@H](OCCN)[C@]12C" too.
Result: 20

Problem: Please give the result for CC(O)[C@H]1CC[C@H]2[C@@H]3[C@H](OCCCN)C[C@@H]4C[C@H](OCCCN)CC[C@]4(C)[C@H]3C[C@H](OCCCN)[C@]12C (stereo partly drawn) too.
Result: 40
